System: Escherichia coli
Assay: Inhibition of Escherichia coli degP assessed as specific activity at 0.5 mM
Parameters: scale not given: the % may be the effect or the level left
Peptide text beside a SMILES is read from it.
observable: Activity

Prompt: API: value(readout= Activity, system= Escherichia coli, query= CC(C)[C@H](NC(=O)[C@H](CCCNC(=N)N)NC(=O)CNC(=O)[C@@H](N)CO)C(=O)N[C@H](C(=O)N1CCC[C@H]1C(=O)NCC(=O)N[C@@H](Cc1ccc(O)cc1)C(=O)NCC(=O)N[C@@H](Cc1cnc[nH]1)C(=O)N[C@@H](C)C(=O)Nc1ccc([N+](=O)[O-])cc1)C(C)C (HELM PEPTIDE1{S.G.R.V.V.P.G.Y.G.H.A.[O=[N+]([O-])c1ccc(N[*:1])cc1]}$$$$V2.0) )
Completion: < 1%

###

Test system: Escherichia coli
Assay: Inhibition of Escherichia coli degP assessed as specific activity at 0.5 mM
Parameters: scale not given: the % may be the effect or the level left
Peptide text beside a SMILES is read from it.
observable: Activity

Prompt: Need Activity, item CSCC[C@H](NC(=O)[C@@H]1CCCN1C(=O)[C@@H](N)CC(=O)O)C(=O)N[C@@H](Cc1ccccc1)C(=O)N[C@@H](CCCCN)C(=O)N[C@@H](CC(C)C)C(=O)N[C@H](C(=O)Nc1ccc([N+](=O)[O-])cc1)C(C)C (HELM PEPTIDE1{D.P.M.F.K.L.V.[O=[N+]([O-])c1ccc(N[*:1])cc1]}$$$$V2.0)
Completion: 473%

Prompt: Note, next up: CC(C)[C@H](NC(=O)CNC(=O)CNC(=O)[C@H](CC(=O)O)NC(=O)[C@@H](NC(=O)[C@@H](N)CO)[C@@H](C)O)C(=O)Nc1ccc([N+](=O)[O-])cc1 (HELM PEPTIDE1{S.T.D.G.G.V.[O=[N+]([O-])c1ccc(N[*:1])cc1]}$$$$V2.0)
Completion: < 1%

Prompt: Note, next up: CC(C)[C@H](NC(=O)[C@@H]1CCCN1C(=O)[C@@H](NC(=O)[C@H](C)NC(=O)CNC(=O)[C@H](CO)NC(=O)CNC(=O)[C@H](CO)NC(=O)[C@H](CC(N)=O)NC(=O)[C@H](CCCCN)NC(=O)CNC(=O)[C@@H](N)CCCCN)[C@@H](C)O)C(=O)Nc1ccc([N+](=O)[O-])cc1 (HELM PEPTIDE1{K.G.K.N.S.G.S.G.A.T.P.V.[O=[N+]([O-])c1ccc(N[*:1])cc1]}$$$$V2.0)
Completion: < 1%

Prompt: Note, next up: CC(C)C[C@H](NC(=O)CN)C(=O)N[C@@H](C)C(=O)N[C@H](C(=O)NCC(=O)N[C@@H](CC(N)=O)C(=O)N[C@H](C(=O)N[C@@H](CO)C(=O)N[C@H](C(=O)N[C@@H](C)C(=O)N[C@@H](CCC(=O)O)C(=O)N[C@@H](CC(C)C)C(=O)N[C@@H](CCC(N)=O)C(=O)N[C@@H](CC(=O)O)C(=O)N[C@@H](C)C(=O)N[C@H](C(=O)N1CCC[C@H]1C(=O)N[C@@H](C)C(=O)Nc1ccc([N+](=O)[O-])cc1)[C@H](C)O)[C@@H](C)O)C(C)C)[C@@H](C)O
Completion: < 1%

Prompt: Note, next up: CC(C)C[C@H](NC(=O)CNC(=O)[C@H](C)NC(=O)CNC(=O)[C@@H]1CCCN1C(=O)[C@@H](NC(=O)[C@H](CO)NC(=O)[C@H](C)NC(=O)CNC(=O)[C@@H](N)CCCCN)C(C)C)C(=O)N[C@H](C(=O)Nc1ccc([N+](=O)[O-])cc1)C(C)C (HELM PEPTIDE1{K.G.A.S.V.P.G.A.G.L.V.[O=[N+]([O-])c1ccc(N[*:1])cc1]}$$$$V2.0)
Completion: < 1%

Prompt: Note, next up: CSCC[C@H](NC(=O)[C@H](CCSC)NC(=O)[C@@H]1CCCN1C(=O)[C@H](CC(C)C)NC(=O)[C@@H](NC(=O)[C@H](CC(N)=O)NC(=O)[C@H](Cc1ccccc1)NC(=O)[C@@H](NC(=O)[C@@H]1CCCN1)C(C)C)[C@H](C)O)C(=O)NCC(=O)N[C@@H](CCCCN)C(=O)N[C@@H](C)C(=O)N[C@@H](CO)C(=O)N1CCC[C@H]1C(=O)N[C@H](C(=O)Nc1ccc([N+](=O)[O-])cc1)C(C)C
Completion: 18%

Prompt: Note, next up: CSCC[C@H](NC(=O)[C@H](CCSC)NC(=O)[C@@H]1CCCN1)C(=O)NCC(=O)N[C@@H](CCCCN)C(=O)N[C@@H](C)C(=O)N[C@@H](CO)C(=O)N1CCC[C@H]1C(=O)N[C@H](C(=O)Nc1ccc([N+](=O)[O-])cc1)C(C)C (HELM PEPTIDE1{P.M.M.G.K.A.S.P.V.[O=[N+]([O-])c1ccc(N[*:1])cc1]}$$$$V2.0)
Completion: 1%

###

Test: Inhibition of trypsin assessed as specific activity at 0.5 mM
Parameters: scale not given: the % may be the effect or the level left
Peptide text beside a SMILES is read from it.
Below: a set of entries, each annotated with reported Activity.

// solved cases for Activity follow
molecule: CSCC[C@H](NC(=O)[C@@H]1CCCN1C(=O)[C@@H](N)CC(=O)O)C(=O)N[C@@H](Cc1ccccc1)C(=O)N[C@@H](CCCCN)C(=O)N[C@@H](CC(C)C)C(=O)N[C@H](C(=O)Nc1ccc([N+](=O)[O-])cc1)C(C)C (HELM PEPTIDE1{D.P.M.F.K.L.V.[O=[N+]([O-])c1ccc(N[*:1])cc1]}$$$$V2.0)
Activity: < 1%

molecule: CC(C)C[C@H](NC(=O)CNC(=O)[C@H](C)NC(=O)CNC(=O)[C@@H]1CCCN1C(=O)[C@@H](NC(=O)[C@H](CO)NC(=O)[C@H](C)NC(=O)CNC(=O)[C@@H](N)CCCCN)C(C)C)C(=O)N[C@H](C(=O)Nc1ccc([N+](=O)[O-])cc1)C(C)C (HELM PEPTIDE1{K.G.A.S.V.P.G.A.G.L.V.[O=[N+]([O-])c1ccc(N[*:1])cc1]}$$$$V2.0)
Activity: < 1%

Here is another molecule to look at.
Prompt: Need Activity, item CSCC[C@H](NC(=O)[C@H](CCSC)NC(=O)[C@@H]1CCCN1C(=O)[C@H](CC(C)C)NC(=O)[C@@H](NC(=O)[C@H](CC(N)=O)NC(=O)[C@H](Cc1ccccc1)NC(=O)[C@@H](N)C(C)C)[C@@H](C)O)C(=O)NCC(=O)N[C@@H](CCCCN)C(=O)N[C@@H](C)C(=O)N[C@@H](CO)C(=O)N1CCC[C@H]1C(=O)N[C@H](C(=O)Nc1ccc([N+](=O)[O-])cc1)C(C)C (HELM PEPTIDE1{V.F.N.T.L.P.M.M.G.K.A.S.P.V.[O=[N+]([O-])c1ccc(N[*:1])cc1]}$$$$V2.0)
Completion: < 1%

###

Experiment: Inhibition of trypsin assessed as specific activity at 0.5 mM
Set-up: scale not given: the % may be the effect or the level left
Peptide text beside a SMILES is read from it.
observable: Activity

// solved cases for Activity follow
molecule: CSCC[C@H](NC(=O)[C@H](CCSC)NC(=O)[C@@H]1CCCN1)C(=O)NCC(=O)N[C@@H](CCCCN)C(=O)N[C@@H](C)C(=O)N[C@@H](CO)C(=O)N1CCC[C@H]1C(=O)N[C@H](C(=O)Nc1ccc([N+](=O)[O-])cc1)C(C)C (HELM PEPTIDE1{P.M.M.G.K.A.S.P.V.[O=[N+]([O-])c1ccc(N[*:1])cc1]}$$$$V2.0)
measurement: < 1%

molecule: CC(C)[C@H](NC(=O)[C@H](CCCNC(=N)N)NC(=O)CNC(=O)[C@@H](N)CO)C(=O)N[C@H](C(=O)N1CCC[C@H]1C(=O)NCC(=O)N[C@@H](Cc1ccc(O)cc1)C(=O)NCC(=O)N[C@@H](Cc1cnc[nH]1)C(=O)N[C@@H](C)C(=O)Nc1ccc([N+](=O)[O-])cc1)C(C)C (HELM PEPTIDE1{S.G.R.V.V.P.G.Y.G.H.A.[O=[N+]([O-])c1ccc(N[*:1])cc1]}$$$$V2.0)
measurement: < 1%

molecule: N=C(N)NCCC[C@H](NC(=O)c1ccccc1)C(=O)Nc1ccc([N+](=O)[O-])cc1
measurement: 758%

Prompt: Need Activity, item CC(C)[C@H](NC(=O)CNC(=O)CNC(=O)[C@H](CC(=O)O)NC(=O)[C@@H](NC(=O)[C@@H](N)CO)[C@@H](C)O)C(=O)Nc1ccc([N+](=O)[O-])cc1 (HELM PEPTIDE1{S.T.D.G.G.V.[O=[N+]([O-])c1ccc(N[*:1])cc1]}$$$$V2.0)
Completion: < 1%
